- Tested on: SNB-19 CNS
- assay: NCI-60 one-dose screen, 48 h (100 = growth as untreated, 0 = no growth, -100 = all killed)
- condition-set: 10 µM unless noted
About 83,000 compounds went through this panel and 20% of them were active in at least one assay; those are over-represented in the sample as a whole. The source made the active and inactive calls. Rule for the calls: active = growth percent below 10; inactive = the rest.
readout-label: growth

Answered cases to consult:
O=C(OC[C@H]1O[C@H](OC(=O)c2cc(O)c(O)c(OC(=O)c3cc(O)c(O)c(O)c3)c2)[C@H](OC(=O)c2cc(O)c(O)c(OC(=O)c3cc(O)c(O)c(O)c3)c2)[C@@H](OC(=O)c2cc(O)c(O)c(OC(=O)c3cc(O)c(O)c(O)c3)c2)[C@@H]1OC(=O)c1cc(O)c(O)c(OC(=O)c2cc(O)c(O)c(O)c2)c1)c1cc(O)c(O)c(OC(=O)c2cc(O)c(O)c(O)c2)c1 : 36.6% (inactive)
c1ccc2cc(C[n+]3ccn(CCCCCCCn4cc[n+](Cc5ccc6ccccc6c5)c4)c3)ccc2c1 : 21.6% (inactive)
CN(C)c1nc(-c2ccco2)n2nc(-c3ccco3)cc2n1 : 98.9% (inactive)
COc1ccc(C2CC(c3cccc(Nc4ccnc5cc(Cl)ccc45)c3)=NN2C=O)cc1 (configuration not stated) : 42.3% (inactive)
CCOC(=O)c1c(C)nc(C)c(C(=O)OCC)c1-c1cccnc1 : 96.1% (inactive)
COc1ccc(-n2nnc(C(=O)O)c2-c2cc(OC)c(OC)c(OC)c2)cc1 : 104% (inactive)

Shift focus to the following entry.
## Task Read the entry CN1COc2ccc3ccccc3c2C1 and write its reported growth.
## Result 104% (inactive)

----------
- System: HCT-15 colon
- assay: NCI-60 one-dose screen, 48 h
- condition-set: 10 µM unless noted
Compounds without any hit were thinned out: in the full panel of roughly 83,000, 20% have a hit. Calls of active or inactive are those of the source. How the source made its calls: active means growth percent below 10; inactive means the rest.
Give one outcome, nothing more. List: active, inactive

c1ccc(Nc2nnc(-c3cc(-c4cccnc4)n(-c4ccccc4)n3)s2)cc1 : active
CCCCCCCC1(C)NC(=O)NC1=O (stereo unspecified) : inactive

Now take the following compound into account.
## Task Could you check what this test reported for ClC1C2CC(c3ccccc32)C1Cl (stereo unspecified) ?
## Result inactive

----------
- Test system: HOP-62 NSCLC
- assay: NCI-60 one-dose screen, 48 h (100 = growth as untreated, 0 = no growth, -100 = all killed)
- condition-set: 10 µM unless noted
This is part of a sample that, as a whole, favours compounds with a hit. Of some 83,000 tested, about 20% had one in any assay.
Note to self: use Satisfied only for growth readings below 90%; a reading exactly at 90% still gets Not satisfied.

Would you please look over these solved cases?
Cc1nn(-c2ccccc2)c(Cl)c1C(CC(=O)c1ccc(Cl)cc1)CC(=O)c1ccc(Cl)cc1 : Not satisfied
CC/C(=C\c1ccc(N(C)C)cc1)c1ccncc1 : Satisfied
Cc1nn(-c2ccc(Cl)cc2)c2nc3c(nc12)c(=O)oc1ccccc13 : Not satisfied
C[N+]1(CCC[N+]2(C)C[C@@H]3[C@H](C2)[C@@H]2C=C[C@H]3C2)CCOCC1 (stereo not given in full) : Not satisfied

Now turn to the next compound.
## Task Identify whether the compound COc1ccc(-c2csc(NC(=O)c3cc(O)c(O)c(O)c3)n2)cc1 records growth below 90%.
## Result Satisfied
